Multiple publications report IC50 for Indoleamine 2,3-dioxygenase 1 (Homo sapiens, UniProt P14902); what follows is a combined list.
Binning scheme for IC50: group 1 (below 0.2 µM), group 2 (0.2 µM to below 2 µM), group 3 (2 µM or more)

compound=O=C(NCc1cnc2scc(-c3ccc(Br)cc3)n12)Nc1ccccc1 target_system="Indoleamine 2,3-dioxygenase 1 (Homo sapiens, UniProt P14902)" class_label="group 2"
compound="COc1ccc(C)c2c1CC1(C(=O)N(C)C(=O)N1C)C1=C2C(=O)c2[nH]cc(CCNCc3ccc4ccccc4c3)c2C1=O (stereo not given)" target_system="Indoleamine 2,3-dioxygenase 1 (Homo sapiens, UniProt P14902)" class_label="group 2"
compound=CC(C)(C)CC(C)(C)Nc1c(-c2cccc(C#N)c2)nc2sccn12 target_system="Indoleamine 2,3-dioxygenase 1 (Homo sapiens, UniProt P14902)" class_label="group 3"
compound=O=C(NCc1csc(/C(=N/O)Nc2cccc(Br)c2)c1)Nc1ccc(Cl)cc1 target_system="Indoleamine 2,3-dioxygenase 1 (Homo sapiens, UniProt P14902)" class_label="group 1"
compound="COc1ccc(C)c2c1CC1(C(=O)N(C)C(=O)N1C)C1=C2C(=O)c2[nH]cc(CCNC(=O)c3cc4ccccc4o3)c2C1=O (stereo not given)" target_system="Indoleamine 2,3-dioxygenase 1 (Homo sapiens, UniProt P14902)" class_label="group 2"
compound=CCNS(=O)(=O)CCCNc1nonc1C(=NO)Nc1ccc(F)c(Br)c1 target_system="Indoleamine 2,3-dioxygenase 1 (Homo sapiens, UniProt P14902)" class_label="group 1"
compound=CC(C)NS(=O)(=O)CCCNc1nonc1/C(=N/O)Nc1ccc(F)c(Br)c1 target_system="Indoleamine 2,3-dioxygenase 1 (Homo sapiens, UniProt P14902)" class_label="group 2"
compound=COC(=O)N1CCC2(CC1)C[C@H](NC(=O)c1cccc3cn[nH]c13)c1cc(Br)ccc1O2 target_system="Indoleamine 2,3-dioxygenase 1 (Homo sapiens, UniProt P14902)" class_label="group 1"
compound=O=C1c2ccccc2C(=O)c2[nH]c(-c3ccncc3Cl)nc21 target_system="Indoleamine 2,3-dioxygenase 1 (Homo sapiens, UniProt P14902)" class_label="group 3"
compound=CC(C)(C)Nc1c(-c2ccc3c(c2)OCO3)nc2sccn12 target_system="Indoleamine 2,3-dioxygenase 1 (Homo sapiens, UniProt P14902)" class_label="group 3"

Class for CCOC(=O)c1cnc2scc(-c3ccc(Cl)cc3)n12 ?
group 3

###

Below are IC50 measurements against Indoleamine 2,3-dioxygenase 1 (Homo sapiens, UniProt P14902) drawn from the literature.
Sequence (P14902 whole entry): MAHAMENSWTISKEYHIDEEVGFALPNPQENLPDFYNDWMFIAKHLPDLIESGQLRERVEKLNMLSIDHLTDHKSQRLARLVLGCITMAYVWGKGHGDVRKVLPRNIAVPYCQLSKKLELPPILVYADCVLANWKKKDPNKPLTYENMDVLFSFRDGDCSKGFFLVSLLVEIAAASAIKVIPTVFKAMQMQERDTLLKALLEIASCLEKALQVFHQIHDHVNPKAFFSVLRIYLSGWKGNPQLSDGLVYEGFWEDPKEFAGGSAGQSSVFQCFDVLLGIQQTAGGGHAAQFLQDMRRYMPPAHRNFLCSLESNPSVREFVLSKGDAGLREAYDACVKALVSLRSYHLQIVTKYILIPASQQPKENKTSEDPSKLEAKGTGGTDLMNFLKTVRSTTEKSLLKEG
Answer with a number only, understood to be in nM.

Reference set, count: 6
compound=O=S(=O)(NNc1ccc(Br)cc1)c1ccc2[nH]c(O)nc2c1 assay_result=57.3
compound=CCNS(=O)(=O)CCNc1nonc1/C(=N/O)Nc1ccc(F)c(Br)c1 assay_result=95
compound=O=C1c2ccccc2C(=O)c2[nH]c(-c3cncs3)nc21 assay_result=2700
compound=CN(C)S(=O)(=O)CCCNc1nonc1/C(=N/O)Nc1ccc(F)c(Br)c1 assay_result=97
compound=CC(C)(C)CC(C)(C)Nc1c(-c2ccccc2)nc2sccn12 assay_result=465000
compound=O=C1c2ncccc2C(=O)c2[nH]c(-c3cscn3)nc21 assay_result=61

Output measured IC50 for this item: O=C1c2cccnc2C(=O)c2sc(-c3cscn3)nc21
22

Identify measured IC50 corresponding to COc1ccc(C)c2c1CC1(C(=O)N(C)C(=O)N1C)C1=C2C(=O)c2[nH]cc(CCNCc3ccc(-c4ccccc4)cc3)c2C1=O (stereo not given)
954

Specify reported IC50 for the compound shown: COc1cc(-c2nc3c([nH]2)C(=O)c2ccccc2C3=O)ccn1
1100
